// Screen- Rabbit/No Protein lookup, one value per entry
Test system: rabbit vWF A1 domain (SEQ ID NO 6)
Sequence (as listed by the source): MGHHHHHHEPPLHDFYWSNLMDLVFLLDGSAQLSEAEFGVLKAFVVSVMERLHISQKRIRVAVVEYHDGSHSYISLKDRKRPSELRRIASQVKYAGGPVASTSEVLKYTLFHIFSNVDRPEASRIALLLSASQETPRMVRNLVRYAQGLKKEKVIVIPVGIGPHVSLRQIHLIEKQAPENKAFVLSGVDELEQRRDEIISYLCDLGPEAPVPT
Test: 3-point dot blot screen, rabbit vWF A1 domain
Type: binding
Settings: DNA SELEX 1 aptamers; 100 nM rabbit vWF A1 domain; ratio of fraction bound with target to without
Give a plain numeric answer without units written out.

AMX200.D8: DNA SELEX 1 aptamer clone (nucleic acid, DNA, backbone not given here, DNA SELEX 1 aptamer clone) DNA: CTACCTACGATCTGACTAGCGGAATGAGAATGTTGATGGATTGCTCAGGTCTGCTGGCTGCTTACTCTCATGTAGTTCC	1.61

Returns the measured Screen- Rabbit/No Protein for the input molecule. Input: AMX200.E8: DNA SELEX 1 aptamer clone (nucleic acid, DNA, backbone not given here, DNA SELEX 1 aptamer clone) DNA: CTACCTACGATCTGACTAGCGGAATGAGGATGCTGGTGGATTGCTCAGGTCTGTTGGCTGCTTACTCTCATGTAGTTCC
1.03
